The measurements presented in this section are drawn from ChEMBL document CHEMBL2396560.

# TARGET DESC: Gamma-secretase (Homo sapiens) (UniProt Q96BI3+Q9NZ42+Q8WW43+P49768+Q92542+P49810)
# ASSAY OVERVIEW: Selctivity ratio of IC50 for partially purified human gamma-secretase-mediated cleavage of notch fusion protein to IC50 for partially purified human gamma-secretase-mediated cleavage of MBP-APPc125Sw fusion protein
# Assay type: protein-complex assay
EXPERIMENTAL ENDPOINT: Ratio IC50

{"columns": ["STRUCTURE SMILES", "Ratio IC50"],
 "data": [
  ["O=S(=O)(c1ccc(C(F)(F)F)cc1)N1c2ccc(F)cc2-c2n[nH]cc2[C@H]1C1CC1", 12],
  ["O=S(=O)(c1ccc(Cl)cc1)N1Cc2c[nH]nc2-c2ccc(F)cc21", 5.8],
  ["C[C@@H]1c2c[nH]nc2-c2cc(F)c(F)cc2N1S(=O)(=O)c1ccc(C(F)(F)F)cc1", 20]
]}

P = O=S(=O)(c1ccc(C(F)(F)F)cc1)N1c2ccccc2-c2n[nH]cc2[C@H]1C1CC1
Q = CC(C)[C@H](O)C(=O)N[C@@H](C)C(=O)N[C@@H]1C(=O)N(C)CCc2ccccc21
R = O=S(=O)(N[C@H](CO)C(C(F)(F)F)C(F)(F)F)c1ccc(Cl)s1
S = C[C@@H]1c2c[nH]nc2-c2cc(F)ccc2N1S(=O)(=O)c1ccc(F)cc1
T = C[C@@H]1c2c[nH]nc2-c2cc(F)ccc2N1S(=O)(=O)c1ccc(Cl)cc1
Sort these compounds on Ratio IC50 so the largest reading comes first. Please express your ranking as an ordered list of the labels.
S, T, P, R, Q
(S: 33, T: 23, P: 15, R: 6.9, Q: 0.41)
